assay: reversal of MRP1-mediated doxorubicin resistance, pilot screen, H69AR cells, doxorubicin co-treatment (AID 601); conditions: H69AR cells + 2 uM doxorubicin, CellTiter-Glo, 72 h; measured here: viability with 2 uM doxorubicin; at 10 µM; stronger effect = lower value
Endpoint: viability (%)
Give the value in % but do not write % after it.

Quick note, viability for `O=S(c1ccsc1)c1ccsc1` landed at 93.2

Quick note, viability for `COc1ccc(-n2c(SCCC(=O)O)nnc2-c2ccncc2)cc1` landed at 96.1

Quick note, viability for `Cc1oc(-c2ccccc2Cl)nc1CSCC(=O)N1CCCC1` landed at 85

Quick note, viability for CCOC(=O)C(NC(=O)c1ccccc1)(Nc1cc(C)on1)C(F)(F)F (stereo not drawn) landed at 86.6

Quick note, viability for `O=c1cc(NCc2ccccc2)nc2n1CCCS2` landed at 91.8

Quick note, viability for `COC(=O)c1ccc(NC(=O)CN2C(=O)CSC2=O)cc1` landed at 94.4

Quick note, viability for `CCOC(=O)C1CCN(c2c(NCCCN(CC)c3ccccc3)c(=O)c2=O)CC1` landed at 72.9

Quick note, viability for `COc1ccc(-c2noc(CN(C(=O)C(C)(C)C)C(C)C)n2)cc1` landed at 91.3

Quick note, viability for `NC(=O)COC(=O)CNC(=O)c1ccc(Cl)cc1` landed at 84.7

Quick note, viability for `Cc1cc2c(nn1)CCC/C2=N\O` landed at 91.8

Quick note, viability for `c1ccc2c(c1)[nH]c1c(N3CCC4(CC3)OCCO4)ncnc12` landed at 86.7

Quick note, viability for CCOC(=O)C1CCCN(CCC(C)c2ccccc2)C1 (stereo not drawn) landed at 84.3

Quick note, viability for `COc1ccc(NC(=O)CN2CCN(CC(=O)Nc3cc(OC)cc(OC)c3)CC2)cc1` landed at 88.4

Quick note, viability for `CC(C)(C)C(=O)Oc1cc(N)n(S(=O)(=O)c2ccccc2)n1` landed at 83.5

Quick note, viability for `N#Cc1nc(-c2ccco2)oc1N1CCN(c2cccc(Cl)c2)CC1` landed at 95.2

Quick note, viability for `Cc1ccc(-c2cn3nc(C)c(C)nc3n2)cc1` landed at 81.5

Quick note, viability for `O=S(=O)(c1ccc(-c2csc(-c3cccnc3)n2)cc1)N1CCCCC1` landed at 83

Quick note, viability for `N#CC1=C(N)SC(N)=C(C#N)C1c1ccc(C(F)(F)F)cc1` landed at 89.3
